assay: murine CD8 T cell vesicle adhesion modulation – mouse 2C CD8+ T cells, flow cytometry, primary screen (AID 2052); details: 2C CD8+ T cell-vesicle binding, at 7 µM;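 note: values below 100% mean blocked vesicle binding to the CD8+ T cells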
Out of some 330,000 compounds screened, about 220 (0.067%) were called active.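 Rule for the calls: active = response, share of CD8 T cells binding vesicles, and their 90th percentile fluorescence all below set limits (cut at about 80% in these data, passing the limit was not always enough); inactive = the rest, inconclusive results apart.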 For the sample, actives were picked, then their nearest neighbours and some compounds at random.
Could you please pick one outcome from this set? active, inactive

| molecule | discrete label |
| --- | --- |
| Cc1ccc(C)c2[nH]c(=O)c(CCNC(=O)CC(C)C)cc12 | inactive |

Per the assay record, what outcome was assigned to COP1(=O)C[C@@H](O)[C@@H](O)[C@@H](COCc2ccccc2)O1 (stereo partly specified) ? inactive

Moving on to the next molecule: NC(=O)C[C@@H]1NC(=O)CNC(=O)c2cc([N+](=O)[O-])cc(I)c2NCCC(C(N)=O)NC1=O (stereo partly specified) inactive

Moving on to the next molecule: COC/C=C/C1=CC2=CC(=O)C(C)(OC(=O)CCC(=O)OC)C(=O)C2=CO1 (stereo unspecified) inactive

Moving on to the next molecule: `Cc1cc(C(=O)N2CCN(c3ccccn3)CC2)c(C)o1` inactive

Moving on to the next molecule: `COc1ccc(N(CC(=O)Nc2ccc(C)cc2C)S(=O)(=O)c2ccccc2[N+](=O)[O-])c(OC)c1` inactive

Moving on to the next molecule: `COc1ccc(C(=O)CC(=O)C(=O)Nc2cc([N+](=O)[O-])ccc2OC)cc1` inactive

Moving on to the next molecule: `O=C(c1ccco1)N1CCN(C(=O)C2c3ccccc3Oc3ccccc32)CC1` active

Moving on to the next molecule: `COc1ccc([N+](=O)[O-])cc1NC(=O)c1ccc(N(Cc2ccccc2C)S(C)(=O)=O)cc1` active

Moving on to the next molecule: `COc1ccc(C(=O)OCC(=O)NC(=O)CCSc2ccccc2)cc1` inactive

Moving on to the next molecule: `CC(C)N1CCC(NC(=O)Nc2ccccc2)CC1` inactive

###

test: murine CD8 T cell vesicle adhesion modulation – mouse 2C CD8+ T cells, flow cytometry, primary screen (AID 2052); settings: 2C CD8+ T cell-vesicle binding, at 7 µM, active compounds read low;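 note: values below 100% mean blocked vesicle binding to the CD8+ T cells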
About 220 (0.067%) of roughly 330,000 compounds were called active. Many of the other results were omitted from the sample, so actives are more common in it than they were.
endpoint: response (vesicle binding) (%)
Answer in %, number only, no unit symbol.

Reference set, count: 5
| molecule | measured result |
| --- | --- |
| Cc1ccccc1NC(=O)Nc1ccccc1N1CCCCC1 | 308 |
| CCOc1cc(C2C(C(=O)OC(C)C)=C(C)NC3=C2C(=O)CCC3)cc([N+](=O)[O-])c1O (stereo not given) | 162 |
| COc1ccc(C2=Nn3c(nnc3-c3ccccc3OC)SC2)cc1OC1CCCC1 | 196 |
| COCc1cc(C)n(CC(=O)NCC2CCCO2)c(=O)c1C#N (stereo not given) | 237 |
| CS(=O)(=O)N1CCc2cc(C(=O)Nc3ccccc3Br)ccc21 | 198 |

Endpoint output: response (vesicle binding) of `Brc1c(CSc2nncc3ccccc23)nc2ccccn12` . Value? 103

Moving on to the next molecule: CC1(C)C2CC=C(/C=N/NC(=O)C3CC3)C1C2 (stereo not given) 548

Moving on to the next molecule: `Cc1ccc(-c2csc(NC(=O)C3=COCCO3)n2)cc1C` 138

Moving on to the next molecule: COC(=O)c1ccc(C2NC(=O)NC(C)=C2C(=O)N(C)C)cc1 (stereo not given) 393

Moving on to the next molecule: `CC(=O)N1CCc2cc(S(=O)(=O)NC3CCCCC3)ccc21` 222

Moving on to the next molecule: `CSc1nnc(SCc2nc3sc(C(=O)O)c(C)c3c(=O)[nH]2)s1` 501

Moving on to the next molecule: `O=S(=O)(Nc1ccc(Cl)cn1)c1cnc(Cl)c(Br)c1` 0

Moving on to the next molecule: `COc1ccccc1OCCn1c(SCC(N)=O)nc2ccccc21` 348

Moving on to the next molecule: CCCCCC1CCC(c2nnc(SCC(C)=O)o2)CC1 (stereo not given) 214
